# Test system: Escherichia coli TOP10
# experimental_details: shrunken log2 fold change of peptide-encoding DNA abundance (4.5 h post-induction vs induction); higher = less antimicrobial activity (less host growth inhibition)
# run_parameters: time post-induction: 4.5 h; library: site-saturation at positions 5, 18, 19, 20
Class condition met: shrunken log2 fold change at least 0.02. Class condition not met: shrunken log2 fold change below 0.02.

>>> df
           ordered_residues              label
 0  RRIRKRPPRLPRPRPRPTEAPRP      condition met
 1  RRIRPRPPRLPRPRPRPHCYPRP  condition not met
 2  RRIRSRPPRLPRPRPRPPETPRP      condition met
 3  RRIRCRPPRLPRPRPRPPSGPRP      condition met
 4  RRIRFRPPRLPRPRPRPQDPPRP  condition not met
 5  RRIRARPPRLPRPRPRPRIWPRP      condition met
 6  RRIRCRPPRLPRPRPRPGIKPRP  condition not met
 7  RRIRERPPRLPRPRPRPDHPPRP  condition not met
 8  RRIRARPPRLPRPRPRPNNPPRP      condition met
 9  RRIRERPPRLPRPRPRPQWYPRP  condition not met
10  RRIRKRPPRLPRPRPRPQRSPRP      condition met
11  RRIRHRPPRLPRPRPRPGQNPRP  condition not met
12  RRIRERPPRLPRPRPRPTDHPRP  condition not met
13  RRIRRRPPRLPRPRPRPWAGPRP      condition met
14  RRIRGRPPRLPRPRPRPLPKPRP      condition met
15  RRIRVRPPRLPRPRPRPQKRPRP  condition not met
16  RRIRFRPPRLPRPRPRPFKHPRP  condition not met
17  RRIRWRPPRLPRPRPRPCNNPRP  condition not met
18  RRIRLRPPRLPRPRPRPEHWPRP      condition met
19  RRIRNRPPRLPRPRPRPGEEPRP  condition not met
20  RRIRQRPPRLPRPRPRPVPMPRP      condition met
21  RRIRQRPPRLPRPRPRPDPHPRP  condition not met
22  RRIRKRPPRLPRPRPRPSWQPRP  condition not met
23  RRIRCRPPRLPRPRPRPSWAPRP      condition met
24  RRIRMRPPRLPRPRPRPTSNPRP  condition not met
25  RRIRYRPPRLPRPRPRPAMHPRP  condition not met
26  RRIRYRPPRLPRPRPRPYWVPRP  condition not met
27  RRIRGRPPRLPRPRPRPALTPRP      condition met
28  RRIRTRPPRLPRPRPRPGMTPRP  condition not met
29  RRIRRRPPRLPRPRPRPLMGPRP  condition not met
30  RRIRDRPPRLPRPRPRPIGWPRP  condition not met
31  RRIRNRPPRLPRPRPRPLAIPRP      condition met

---

# Test system: Escherichia coli TOP10;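 also: peptides expressed intracellularly from a pBAD plasmid library in pooled LB shake-flask culture, induced with 0.3% L-arabinose, DNA abundance read by NGS, three biological replicates, DESeq2 with apeglm shrinkage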
# experimental_details: shrunken log2 fold change of peptide-encoding DNA abundance (4.5 h post-induction vs induction); higher = less antimicrobial activity (less host growth inhibition)
# run_parameters: time post-induction: 4.5 h; library: site-saturation at positions 5, 18, 19, 20
Records here are stratified by shrunken log2 fold change; strata: bin 1 (below -0.04), bin 2 (-0.04 to below 0.06), bin 3 (0.06 or more)

           ordered_residues     experimental_system  label
 0  RRIRFRPPRLPRPRPRPTHDPRP  Escherichia coli TOP10  bin 3
 1  RRIRSRPPRLPRPRPRPKTFPRP  Escherichia coli TOP10  bin 1
 2  RRIRVRPPRLPRPRPRPAHWPRP  Escherichia coli TOP10  bin 3
 3  RRIRTRPPRLPRPRPRPDVEPRP  Escherichia coli TOP10  bin 2
 4  RRIRGRPPRLPRPRPRPDSDPRP  Escherichia coli TOP10  bin 2
 5  RRIRGRPPRLPRPRPRPCVGPRP  Escherichia coli TOP10  bin 3
 6  RRIRPRPPRLPRPRPRPVGKPRP  Escherichia coli TOP10  bin 2
 7  RRIRFRPPRLPRPRPRPSHIPRP  Escherichia coli TOP10  bin 1
 8  RRIRLRPPRLPRPRPRPKHIPRP  Escherichia coli TOP10  bin 1
 9  RRIRKRPPRLPRPRPRPGGEPRP  Escherichia coli TOP10  bin 3
10  RRIRVRPPRLPRPRPRPWECPRP  Escherichia coli TOP10  bin 2
11  RRIRRRPPRLPRPRPRPYVRPRP  Escherichia coli TOP10  bin 1
12  RRIRCRPPRLPRPRPRPWDFPRP  Escherichia coli TOP10  bin 2
